- Assay comment: Reported DDI studies of CYP3A substrates with strong, moderate or weak CYP3A inducers
- Type: in vivo
- Test context: ratio of AUC decreases
Entries and their measured Strong CYP3A Inducer Effect /Moderate CYP3A Inducer Effect follow.
Could you respond with only the numeric value?

O=C(c1cc(Cc2n[nH]c(=O)c3ccccc23)ccc1F)N1CCN(C(=O)C2CC2)CC1 [Olaparib] :: 1.38
O=C(c1ccc(F)c(F)c1Nc1ccc(I)cc1F)N1CC(O)([C@@H]2CCCCN2)C1 [Cobimetinib] :: 1.15
CC(=O)c1c(C)c2cnc(Nc3ccc(N4CCNCC4)cn3)nc2n(C2CCCC2)c1=O [Palbociclib] :: 2.43
Cc1cnc(Nc2ccc(OCCN3CCCC3)cc2)nc1Nc1cccc(S(=O)(=O)NC(C)(C)C)c1 [Fedratinib] :: 1.72
Cc1cc(Nc2ncc(Cl)c(Nc3ccccc3S(=O)(=O)C(C)C)n2)c(OC(C)C)cc1C1CCNCC1 [Ceritinib] :: 1.59

Problem: // Strong CYP3A Inducer Effect /Moderate CYP3A Inducer Effect lookup, key: O=C(c1cc(Cc2n[nH]c(=O)c3ccccc23)ccc1F)N1CCn2nc(C(F)(F)F)nc2C1 [Fuzuloparib]
Solution: 1.45

Problem: // Strong CYP3A Inducer Effect /Moderate CYP3A Inducer Effect lookup, key: Cc1c(C(=O)Nc2ccc(N3C[C@@H](C)O[C@@H](C)C3)nc2)cccc1-c1ccc(OC(F)(F)F)cc1 [Sonidegib]
Solution: 1.56

Problem: // Strong CYP3A Inducer Effect /Moderate CYP3A Inducer Effect lookup, key: COc1ccc(F)cc1C(=O)NCc1ccc(-c2nn([C@@H](C)C(F)(F)F)c(N)c2C(N)=O)cc1 [Pirtobrutinib]
Solution: 1.45

---

- Assay comment: Phase 1 clinical DDI study: steady-state plasma PK (noncompartmental analysis) with and without modafinil
- Type: in vivo, Human
- Test context: human, plasma, po, Day 21, with modafinil 400 mg QD Days 15-21; steady state, encorafenib 450 mg QD + binimetinib 45 mg BID oral; plasma; patients; read-out: Cmax, GM (CV%)
Measurement label: Cmax (ng/mL)
Express the result in ng/mL but write the number alone.

Problem: // Cmax lookup, key: Cn1cnc2c(F)c(Nc3ccc(Br)cc3F)c(C(=O)NOCCO)cc21 [Binimetinib, binimetinib]
Solution: 663

Problem: // Cmax lookup, key: COC(=O)N[C@@H](C)CNc1nccc(-c2cn(C(C)C)nc2-c2cc(Cl)cc(NS(C)(=O)=O)c2F)n1 [Encorafenib, encorafenib]
Solution: 2830

---

Entries and their measured AUC(0-t) follow.
- Assay comment: Phase 1 clinical DDI study: steady-state plasma PK (noncompartmental analysis) with and without modafinil
- Format: in vivo, Human
- Test context: human, plasma, oral, Day 14, without modafinil; steady state; plasma; patients; read-out: AUClast, GM (CV%)
Express the result in ng·h/mL but write the number alone.

Cn1cnc2c(F)c(Nc3ccc(Br)cc3F)c(C(=O)NOCCO)cc21 [Binimetinib, binimetinib] :: 2400

Please examine the following record next.
Problem: // AUC(0-t) lookup, key: COC(=O)N[C@@H](C)CNc1nccc(-c2cn(C(C)C)nc2-c2cc(Cl)cc(NS(C)(=O)=O)c2F)n1 [Encorafenib, encorafenib]
Solution: 11900

---

Entries and their measured Cmax follow.
- Assay comment: Phase 1 clinical DDI study: steady-state plasma PK (noncompartmental analysis) with and without modafinil
- Assay type: in vivo, Human
- Test context: human, plasma, po, Day 14, without modafinil; steady state, encorafenib 450 mg QD + binimetinib 45 mg BID oral; plasma; patients; read-out: Cmax, GM (CV%)
Express the result in ng/mL but write the number alone.

COC(=O)N[C@@H](C)CNc1nccc(-c2cn(C(C)C)nc2-c2cc(Cl)cc(NS(C)(=O)=O)c2F)n1 :: 3540

Please examine the following record next.
Problem: // Cmax lookup, key: Cn1cnc2c(F)c(Nc3ccc(Br)cc3F)c(C(=O)NOCCO)cc21
Solution: 660

---

- Assay comment: Phase 1 clinical DDI study: steady-state plasma PK (noncompartmental analysis) with and without modafinil
- Type: in vivo, Human
- Test context: human, plasma, oral, 400 mg, Day 21, with modafinil 400 mg QD; steady state; plasma; patients; read-out: T1/2, Median (range) (converted)
Measurement label: half-life (min)
Express the result in min but write the number alone.

COC(=O)N[C@@H](C)CNc1nccc(-c2cn(C(C)C)nc2-c2cc(Cl)cc(NS(C)(=O)=O)c2F)n1 :: 228

Please examine the following record next.
Problem: // half-life lookup, key: Cn1cnc2c(F)c(Nc3ccc(Br)cc3F)c(C(=O)NOCCO)cc21
Solution: 268

---

- Assay comment: Phase 1 clinical DDI study: steady-state plasma PK (noncompartmental analysis) with and without modafinil
- Format: in vivo, Human
- Test context: human, oral; Day 21, with modafinil 400 mg QD; steady state; plasma; patients; read-out: Tmax, Median (range)
- Method: Encorafenib 450 mg QD and binimetinib 45 mg BID were administered starting on Day 1. Patients then received continuous treatment of 400 mg QD modafinil on Day 15 through Day 21. […] Human PK plasma samples were analyzed for quantitation of all PK analytes at PPD (Middleton, Wisconsin, US) using validated, sensitive, and specific HPLC/MS/MS methods in compliance with laboratory SOPs. […]
Measurement label: Tmax (h)
Express the result in h but write the number alone.

Problem: // Tmax lookup, key: COC(=O)N[C@@H](C)CNc1nccc(-c2cn(C(C)C)nc2-c2cc(Cl)cc(NS(C)(=O)=O)c2F)n1 [Encorafenib, encorafenib]
Solution: 1

---

- Assay comment: Phase 1 clinical DDI study: steady-state plasma PK (noncompartmental analysis) with and without modafinil
- Assay type: in vivo, Human
- Test context: human, plasma, oral, 400 mg, Day 21, with modafinil 400 mg QD; steady state; plasma; patients; read-out: Cmax, Median (range)
Measurement label: Cmax (ng/mL)
Express the result in ng/mL but write the number alone.

Problem: // Cmax lookup, key: COC(=O)N[C@@H](C)CNc1nccc(-c2cn(C(C)C)nc2-c2cc(Cl)cc(NS(C)(=O)=O)c2F)n1 [Encorafenib, encorafenib]
Solution: 2750

---

- Assay comment: Phase 1 clinical DDI study: steady-state plasma PK (noncompartmental analysis) with and without modafinil
- Type: in vivo, Human
- Test context: human, plasma, oral, 400 mg, Day 21, with modafinil 400 mg QD; steady state; plasma; patients; read-out: T1/2, GM (CV%) (converted)
Measurement label: half-life (h)
Express the result in h but write the number alone.

Cn1cnc2c(F)c(Nc3ccc(Br)cc3F)c(C(=O)NOCCO)cc21 :: 4.55

Please examine the following record next.
Problem: // half-life lookup, key: COC(=O)N[C@@H](C)CNc1nccc(-c2cn(C(C)C)nc2-c2cc(Cl)cc(NS(C)(=O)=O)c2F)n1
Solution: 3.57

---

- Assay comment: Phase 1 clinical DDI study: steady-state plasma PK (noncompartmental analysis) with and without modafinil
- Assay type: in vivo, Human
- Test context: human, plasma, oral, 400 mg, Day 21, with modafinil 400 mg QD; steady state; plasma; patients; read-out: AUClast, Median (range)
Entries and their measured AUC(0-t) follow.

COC(=O)N[C@@H](C)CNc1nccc(-c2cn(C(C)C)nc2-c2cc(Cl)cc(NS(C)(=O)=O)c2F)n1 :: 10000 ng·h/mL

Please examine the following record next.
Problem: // AUC(0-t) lookup, key: Cn1cnc2c(F)c(Nc3ccc(Br)cc3F)c(C(=O)NOCCO)cc21
Solution: 2430 ng·h/mL

---

- Assay comment: Phase 1 clinical DDI study: steady-state plasma PK (noncompartmental analysis) with and without modafinil
- Type: in vivo, Human
- Test context: human, plasma, oral, 400 mg, Day 21, with modafinil 400 mg QD; steady state; plasma; patients; read-out: AUClast, GM (CV%)
Entries and their measured AUC(0-t) follow.
Express the result in ng·h/mL but write the number alone.

Cn1cnc2c(F)c(Nc3ccc(Br)cc3F)c(C(=O)NOCCO)cc21 :: 2290

Please examine the following record next.
Problem: // AUC(0-t) lookup, key: COC(=O)N[C@@H](C)CNc1nccc(-c2cn(C(C)C)nc2-c2cc(Cl)cc(NS(C)(=O)=O)c2F)n1
Solution: 9100

---

Entries and their measured half-life follow.
- Assay comment: Phase 1 clinical DDI study: steady-state plasma PK (noncompartmental analysis) with and without modafinil
- Format: in vivo, Human
- Test context: human, plasma, oral, Day 14, without modafinil; steady state; plasma; patients; read-out: T1/2, Median (range) (converted)
Express the result in min but write the number alone.

COC(=O)N[C@@H](C)CNc1nccc(-c2cn(C(C)C)nc2-c2cc(Cl)cc(NS(C)(=O)=O)c2F)n1 [Encorafenib, encorafenib] :: 210

Please examine the following record next.
Problem: // half-life lookup, key: Cn1cnc2c(F)c(Nc3ccc(Br)cc3F)c(C(=O)NOCCO)cc21 [Binimetinib, binimetinib]
Solution: 309
